system: FBXW7; test: 3' UTR reporter interaction score (median-centred robust z-score of log2 firefly/Renilla activity); higher = less repression of the 3' UTR reporter; settings: HEK293T; 48 h
Measured Metric: 3' UTR reporter interaction score

              sequence_string  target_desc  observed_result
 0    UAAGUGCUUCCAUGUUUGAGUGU        FBXW7            0.795
 1        GUGUCUGCUUCCUGUGGGA        FBXW7            0.999
 2     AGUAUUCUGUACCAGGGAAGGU        FBXW7             1.75
 3     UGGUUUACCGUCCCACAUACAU        FBXW7             0.14
 4      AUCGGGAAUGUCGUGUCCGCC        FBXW7            0.361
 5    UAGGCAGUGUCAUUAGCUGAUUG        FBXW7            -1.11
 6     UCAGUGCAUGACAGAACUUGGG        FBXW7            0.501
 7     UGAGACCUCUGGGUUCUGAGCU        FBXW7            0.371
 8      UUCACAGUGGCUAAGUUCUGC        FBXW7            -3.31
 9     ACUAGACUGAAGCUCCUUGAGG        FBXW7            -1.12
10        UGGUAGACUAUGGAACGUA        FBXW7            0.552
11     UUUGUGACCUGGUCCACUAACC        FBXW7           -0.879
12    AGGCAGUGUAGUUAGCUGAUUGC        FBXW7           -0.242
13    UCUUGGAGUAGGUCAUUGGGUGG        FBXW7            -2.32
14    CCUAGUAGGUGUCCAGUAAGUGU        FBXW7           -0.251
15  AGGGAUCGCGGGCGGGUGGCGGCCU        FBXW7           -0.971
16    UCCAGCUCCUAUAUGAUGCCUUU        FBXW7             0.91
17   AAAAGUGCUUACAGUGCAGGUAGC        FBXW7           -0.263
18       AUUCUGCAUUUUUAGCAAGU        FBXW7             -2.1
19     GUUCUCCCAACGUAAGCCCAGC        FBXW7             1.08
20     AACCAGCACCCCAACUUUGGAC        FBXW7            -7.19
21      UAGGUAGUUUCCUGUUGUUGG        FBXW7          -0.0724
22       UCUAGUAAGAGUGGCAGUCG        FBXW7             1.23
23     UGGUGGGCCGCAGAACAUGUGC        FBXW7             1.65
24     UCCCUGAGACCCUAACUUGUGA        FBXW7           -0.252
25      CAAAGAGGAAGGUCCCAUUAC        FBXW7            0.456
26     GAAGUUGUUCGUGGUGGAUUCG        FBXW7            -1.37
27    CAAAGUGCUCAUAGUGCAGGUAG        FBXW7                1
28    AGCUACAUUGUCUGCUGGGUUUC        FBXW7             1.22
29    UAAGUGCUUCCAUGUUUUAGUAG        FBXW7            0.557
30     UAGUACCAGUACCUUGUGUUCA        FBXW7            0.884
31      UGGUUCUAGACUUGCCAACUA        FBXW7           0.0613
32      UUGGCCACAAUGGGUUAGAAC        FBXW7            -5.44
